EXPERIMENTAL TARGET: T1, Lassa NPn (N-terminal portion of NP encoding residues 1-340) (Lassa virus lineage IV, strain Josiah, UniProt P13699)
T1 construct: source: bought: Zalgen (recombinant)
T1 sequence (P13699 1-340): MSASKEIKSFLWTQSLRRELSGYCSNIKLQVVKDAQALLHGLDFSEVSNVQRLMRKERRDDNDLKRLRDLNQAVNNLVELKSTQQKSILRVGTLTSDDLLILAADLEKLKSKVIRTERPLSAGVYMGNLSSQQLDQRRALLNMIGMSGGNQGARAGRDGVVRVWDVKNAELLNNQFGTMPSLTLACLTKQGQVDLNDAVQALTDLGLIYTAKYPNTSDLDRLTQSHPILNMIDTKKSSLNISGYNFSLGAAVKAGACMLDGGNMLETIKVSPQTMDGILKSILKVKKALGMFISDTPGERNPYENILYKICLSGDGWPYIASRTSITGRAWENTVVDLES
PROTOCOL DETAILS: SPR; ProteOn XPR36; […] (20 ug/mL in 10 mM sodium acetate pH 5.0); […]; Langmuir model
CONDITION DETAILS: both partners purified
Known koff of a selection of binders
Kindly answer with a numeric value in s⁻¹, unit omitted.

Known koff results, listed for orientation:
# BINDER, MEASURED PARAMETER, UNITS OF MEASURE, OBSERVED RESULT
data = [
    ("sdAb E10 (VHH, source: E. coli Tuner (DE3), periplasmic, purified (osmotic shock, IMAC, gel filtration)) VHH: DVQLQASGGGLVQAGASLRLSCAASGFTYTMGWFRQAPGQEREFVAAIARSGGTTYYTDSVKGRFTISRDNAKKTVFLQLNSLKPEDTAVYYCAADALPYSAQSMSTRNPGYWGQGTQVTVSS", "koff", "s⁻¹", 0.13),
    ("sdAb H6 (VHH, also called clone H6; Bt-H6; source: E. coli Tuner (DE3), periplasmic, purified (osmotic shock, IMAC, gel filtration)) VHH: DVQLQASGGGVVQPGGSLRLSCVASGFTLVYYGIGWFRQAPGKEREGVSCISSNDGSTYYADSVKGRFTISRDAAKNTVYLQMNSLKPEDTAVYYCATELGNTHRGSFFPNRRVKRCRTDDFASWGQGTQVTVSS", "koff", "s⁻¹", 0.0057),
    ("sdAb C7 (VHH, source: E. coli Tuner (DE3), periplasmic, purified (osmotic shock, IMAC, gel filtration)) VHH: EVQLQASGGGLVQPGGSLRLSCVASGFTLVYYGIGWFRQAPGKEREGVSCISSNDGSTYYADSVKGRFTISRDAAKNTMYLQMNSLKPEDTAVYYCATELGNTHRGSFFPNRRVERCRTDDFASWGQGTQVTVSS", "koff", "s⁻¹", 0.0038),
    ("sdAb F3 (VHH, source: E. coli Tuner (DE3), periplasmic, purified (osmotic shock, IMAC, gel filtration)) VHH: DVQLQASGGGLVQPGGSLRLSCAASGFTLVYYGIGWFRQAPGKEREGVSCISSYDGTTYYADSVKGRFTISRDNAKNTVYLQMNSLKPEDTAVYYCATELGNTHRGSYFPKQRVERCHTGDFASWGQGTQVTVSS", "koff", "s⁻¹", 0.003),
]

# evaluate next
binder sdAb E11 (VHH, source: E. coli Tuner (DE3), periplasmic, purified (osmotic shock, IMAC, gel filtration)) VHH: EVQLQASGGGLAQPGGSLRLSCAASGFTLVYYGIGWFRQAPGKEREGVSCISSNDGTTYYADSVKGRFTISRDNAKNTVYLQMNSLKPEDTAVYYCATELGNTHRGSYFPKQRVERCHTGDFASWGQGTQVTVSS , koff observed: 0.0076

Origin of measurements: paper PMC7768477
